The following compounds are listed with their measured IC50 values.
Molecular target: Bromodomain-containing protein 4 (Homo sapiens, UniProt O60885)
Test: Displacement of Biotin-tagged [Lys(5,8,12,16)Ac]H4(1 to 21) peptide from GST-tagged BRD4-BD1 (unknown origin) incubated for 3 hrs by HTRF based TR-FRET assay

{"columns": ["smiles.str", "IC50 / µM"],
 "data": [
  ["Cc1cc(-c2ccc3nnn(Cc4ccccc4)c3c2)cn(C)c1=O", 0.038],
  ["COCCn1c(=O)n(Cc2ccccc2)c2cc(-c3cc(C)c(=O)n(C)c3)ccc21", 0.045],
  ["CCS(=O)(=O)Cc1cc(-c2cc(C)c(=O)n(C)c2)cc2c1[nH]c(=O)n2Cc1ccccc1", 0.0042],
  ["Cc1cc(-c2ccc3c(c2)n(Cc2ccccc2)c(=O)n3C(C)C)cn(C)c1=O", 0.025],
  ["CCS(=O)(=O)Nc1cc(-c2cc(C)c(=O)n(C)c2)cc2c1[nH]c(=O)n2Cc1ccccc1", 0.019],
  ["Cc1cc(-c2ccc3ccn(Cc4ccccc4)c3c2)cn(C)c1=O", 0.094],
  ["CCS(=O)(=O)NCc1cc(-c2cc(C)c(=O)n(C)c2)cc2c1n(C)c(=O)n2Cc1ccccc1", 0.039],
  ["Cc1cc(-c2cc3c4c(c2)n(Cc2ccccc2)c(=O)n4CCO3)cn(C)c1=O", 0.015],
  ["CCS(=O)(=O)Cc1cc(-c2cc(C)c(=O)n(C)c2)cc2c1n(C)c(=O)n2Cc1ccccc1", 0.0048],
  ["Cc1cc(-c2ccc3[nH]c(=O)n(Cc4ccccc4)c3c2)cn(C)c1=O", 0.032]
]}
